Tested on: Aphis craccivora
ASSAY METHOD TEXT: Insecticidal activity against Aphis craccivora (cowpea aphid) infested horsebean plant leaves assessed as insect mortality at 500 mg/L measured 24 hr post compound treatment by leaf-dip method
Format: functional
Examples of compounds with documented mortality at 500 µg/mL follow.
Write the number in % without appending the unit.

Use these answered entries as a reference point.
MOLECULAR STRING: Cc1ccc(/C=C(/C2=NCCCN2Cc2ccc(Cl)nc2)[N+](=O)[O-])s1
RECORDED MEASUREMENT: 100

MOLECULAR STRING: CCc1ccc(/C=C(/C2=NCCN2Cc2ccc(Cl)nc2)[N+](=O)[O-])o1
RECORDED MEASUREMENT: 100

Turning to the following compound.
Problem: Please list mortality at 500 µg/mL recorded for the compound `O=[N+]([O-])/C(=C\c1ccco1)C1=NCCN1Cc1ccccc1`
Result: 0

====

Tested on: Aphis craccivora
ASSAY METHOD TEXT: Insecticidal activity against Aphis craccivora (cowpea aphid) infested horsebean plant leaves assessed as insect mortality measured 24 hr post compound treatment by leaf-dip method
Type: functional
// values below are reported log10 of LC50
Use the decimal logarithm of LC50 (µM).

MOLECULAR STRING: Cc1ccc(/C=C(/C2=NCCCN2Cc2ccc(Cl)nc2)[N+](=O)[O-])o1
TGT: Aphis craccivora
log10 of LC50: 2.84

Problem: Output reported log10 of LC50 of the compound `Cc1ccc(/C=C(/C2=NCCN2Cc2ccc(Cl)nc2)[N+](=O)[O-])o1` on Aphis craccivora.
Result: 0.80

Problem: State, for Aphis craccivora, measured log10 of LC50 of the compound listed here: `Cc1ccc(/C=C(/C2=NCCCN2Cc2ccc(Cl)nc2)[N+](=O)[O-])s1`
Result: 1.39

Problem: Please look at `O=[N+]([O-])/C(=C\c1ccc[nH]1)C1=NCCN1Cc1ccc(Cl)nc1` and tell me its recorded log10 of LC50 on Aphis craccivora.
Result: 1.05

Problem: GET log10 of LC50 where system = Aphis craccivora and item = `O=[N+]([O-])/C(=C\c1ccc([N+](=O)[O-])o1)C1=NCCN1Cc1ccc(Cl)nc1`
Result: 1.05

Problem: Write log10 of LC50 of `O=[N+]([O-])/C(=C\c1ccco1)C1=NCCCN1Cc1ccc(Cl)nc1` ; system used: Aphis craccivora
Result: 1.88

Problem: Please report the measured log10 of LC50 for `O=[N+]([O-])/C(=C\c1ccc(Br)o1)C1=NCCN1Cc1ccc(Cl)nc1` tested on Aphis craccivora.
Result: 0.86

====

Test system: Aphis craccivora
ASSAY METHOD TEXT: Insecticidal activity against Aphis craccivora (cowpea aphid) infested horsebean plant leaves assessed as insect mortality at 500 mg/L measured 24 hr post compound treatment by leaf-dip method
Type: functional
METRIC: mortality at 500 µg/mL

Check out these entries, answers already filled in.
MOLECULAR STRING: O=[N+]([O-])/C(=C\c1ccc[nH]1)C1=NCCN1Cc1ccc(Cl)nc1
RECORDED MEASUREMENT: 100%
//
MOLECULAR STRING: O=[N+]([O-])/C(=C\c1ccc(Cl)o1)C1=NCCCN1Cc1ccc(Cl)nc1
RECORDED MEASUREMENT: 100%
//
MOLECULAR STRING: O=[N+]([O-])/C(=C\c1cccs1)C1=NCCCN1Cc1ccc(Cl)nc1
RECORDED MEASUREMENT: 100%
//
MOLECULAR STRING: O=[N+]([O-])/C(=C\c1ccco1)C1=NCCN1Cc1cnc(Cl)s1
RECORDED MEASUREMENT: 100%
//
MOLECULAR STRING: O=[N+]([O-])/C(=C\c1cc(Br)cs1)C1=NCCN1Cc1ccc(Cl)nc1
RECORDED MEASUREMENT: 0%

Problem: Give the reported mortality at 500 µg/mL for this compound. `O=[N+]([O-])/N=C1\NCCN1Cc1ccc(Cl)nc1`
Result: 100%

Problem: // Input: `Cl.O=[N+]([O-])/C(=C\c1cccs1)C1=NCCN1Cc1ccc(Cl)nc1` . Output its mortality at 500 µg/mL only.
Result: 100%

Problem: Give mortality at 500 µg/mL for `Cc1ccc(/C=C(/C2=NCCCN2Cc2ccc(Cl)nc2)[N+](=O)[O-])o1`
Result: 100%

Problem: // Input: `Cc1ccc(/C=C(/C2=NCCN2Cc2ccc(Cl)nc2)[N+](=O)[O-])o1` . Output its mortality at 500 µg/mL only.
Result: 100%

Problem: Name the recorded mortality at 500 µg/mL of the compound listed here: `O=[N+]([O-])/C(=C\c1ccsc1)C1=NCCN1Cc1ccc(Cl)nc1`
Result: 31.9%

Problem: Give mortality at 500 µg/mL for `O=[N+]([O-])/C(=C\c1ccoc1)C1=NCCN1Cc1ccc(Cl)nc1`
Result: 100%

Problem: Quick one: give measured mortality at 500 µg/mL for `O=[N+]([O-])/C(=C\c1ccco1)C1=NCCN1Cc1ccc(Cl)cc1`
Result: 98%

Problem: Please report the measured mortality at 500 µg/mL for `O=[N+]([O-])/C(=C\c1ccc([N+](=O)[O-])o1)C1=NCCN1Cc1ccc(Cl)nc1`
Result: 100%

Problem: Report mortality at 500 µg/mL, nothing else, for this compound: `O=[N+]([O-])/C(=C\c1ccc(Cl)o1)C1=NCCN1Cc1ccc(Cl)nc1`
Result: 100%

Problem: Please supply the value of reported mortality at 500 µg/mL for the item `O=[N+]([O-])/C(=C\c1ccco1)C1=NCCCN1Cc1ccc(Cl)nc1`
Result: 100%

Problem: Recall and state the measured mortality at 500 µg/mL for `Cc1cc(/C=C(/C2=NCCN2Cc2ccc(Cl)nc2)[N+](=O)[O-])oc1C` .
Result: 100%

Problem: Return value of mortality at 500 µg/mL for input `Cc1ccc(/C=C(/C2=NCCN2Cc2ccc(Cl)nc2)[N+](=O)[O-])s1` , no commentary.
Result: 100%

====

Tested on: Aphis craccivora
ASSAY METHOD TEXT: Insecticidal activity against Aphis craccivora (cowpea aphid) infested horsebean plant leaves assessed as insect mortality measured 24 hr post compound treatment by leaf-dip method
Assay type: functional
METRIC: LC50 (µM)
// return numeric value only (unit: µM, not printed)

Examples with their reported LC50 follow.
MOLECULAR STRING: O=[N+]([O-])/N=C1\NCCN1Cc1ccc(Cl)nc1
LC50, µM: 35
//
MOLECULAR STRING: O=[N+]([O-])/C(=C\c1ccco1)C1=NCCN1Cc1ccc(Cl)cc1
LC50, µM: 234

Field: next compound
Problem: Identify measured LC50 associated with `Cl.O=[N+]([O-])/C(=C\c1ccc(CO)o1)C1=NCCN1Cc1ccc(Cl)nc1`
Result: 10.6

====

Tested on: Aphis craccivora
ASSAY METHOD TEXT: Insecticidal activity against Aphis craccivora (cowpea aphid) infested horsebean plant leaves assessed as insect mortality at 500 mg/L measured 24 hr post compound treatment by leaf-dip method
Assay type: functional
METRIC: mortality at 500 µg/mL (%)
Write the number in % without appending the unit.

MOLECULAR STRING: O=[N+]([O-])/C(=C\c1ccc(Br)o1)C1=NCCN1Cc1ccc(Cl)nc1
TGT: Aphis craccivora
mortality at 500 µg/mL / %: 100

Problem: Tell me measured mortality at 500 µg/mL for `Cl.O=[N+]([O-])/C(=C\c1ccc(CO)o1)C1=NCCN1Cc1ccc(Cl)nc1` please.
Result: 100

Problem: Specify mortality at 500 µg/mL for `Cl.O=[N+]([O-])/C(=C\c1ccco1)C1=NCCN1Cc1ccc(Cl)nc1` and stop.
Result: 100
